- experimentNotes: qHTS assay to identify small molecule antagonists of the retinoic acid receptor (RAR) signaling pathway (AID 1159552; note: nearly all actives have a fitted effect of over 50% in size)
- measurementSetup: C3RL4 RARE luciferase reporter, retinol-stimulated, 6 h; series mostly up to 92.4 µM
Results filed as inconclusive are left out. Activity calls are given as the source filed them. Calls come from the whole dose curve; as a rule, active = well fitted inhibition curve with a large enough effect in the repeat runs; inconclusive = weak or mixed curves, or effect the other way; inactive = no such curve, though single readings can be large or run the other way.
Valid outcomes are listed here; reply with one: Yes for active, No for inactive

>>> classname("N#C/C(N)=C(/N)C#N")
"No"
>>> classname("Nc1nc(=S)[nH][nH]1")
"No"
>>> classname("CO/N=C(/C(=O)OC)c1ccccc1COc1ccccc1C")
"Yes"

Test call for this compound, please: O=C(NCc1cccnc1)Nc1ccc([N+](=O)[O-])cc1 No

For BrCCCCBr , what call appears in the results of this test? No

Dear all, I need the recorded test outcome for COC(=O)C(C)N(C(=O)Cc1ccccc1)c1c(C)cccc1C (centres undefined) , thank you. No

Give the logged outcome of this assay for the following compound: C=COC(C)=O No

Answer briefly: the call reported for C=CCC1([C@H](C)CCC)C(=O)NC(=O)NC1=O in this assay. No

For this compound, state the assay outcome: COC(N)=O No

Lab log entry: COC(=O)c1cncn1C(C)c1ccccc1 (centres undefined) — outcome as called in the assay? No

Query: recorded result category for O=S(=O)(Cl)c1ccccc1 in this test No
